Please respond with reported IC50 for every item in the list.
# System Name: human SGLT2 (Homo sapiens, UniProt P31639)
# Construct: expressed in transfected cells; host or cells: CHOK1 (Chinese hamster ovary) cells, kept under Geneticin selection
# Sequence (P31639 whole entry): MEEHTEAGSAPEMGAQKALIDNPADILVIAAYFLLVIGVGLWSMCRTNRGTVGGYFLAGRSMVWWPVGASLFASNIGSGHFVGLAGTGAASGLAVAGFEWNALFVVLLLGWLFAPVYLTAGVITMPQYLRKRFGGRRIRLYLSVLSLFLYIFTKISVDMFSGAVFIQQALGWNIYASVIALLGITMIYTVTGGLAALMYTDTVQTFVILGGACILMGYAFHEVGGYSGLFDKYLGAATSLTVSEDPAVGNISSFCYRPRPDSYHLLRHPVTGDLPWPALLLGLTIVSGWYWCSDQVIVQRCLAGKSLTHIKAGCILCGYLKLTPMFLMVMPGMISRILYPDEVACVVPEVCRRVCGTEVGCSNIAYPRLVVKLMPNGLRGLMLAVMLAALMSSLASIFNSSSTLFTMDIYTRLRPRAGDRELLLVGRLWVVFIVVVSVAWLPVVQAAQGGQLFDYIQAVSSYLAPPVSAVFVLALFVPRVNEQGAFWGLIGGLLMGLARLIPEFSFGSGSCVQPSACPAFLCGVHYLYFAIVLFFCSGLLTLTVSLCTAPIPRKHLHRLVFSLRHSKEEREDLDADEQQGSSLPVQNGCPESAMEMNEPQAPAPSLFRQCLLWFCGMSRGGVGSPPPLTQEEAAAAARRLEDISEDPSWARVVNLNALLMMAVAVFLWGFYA
# Protocol Notes: Assay for SGLT2 inhibition (14C-AMG uptake in CHOK1 cells expressing human SGLT2)
# Type: cell-based
# Condition Notes: CHOK1 cells expressing human SGLT2; 14C-AMG uptake, 0.5 mM, 2 hours at 37° C.; read-out: IC50
Enter your answer as a number in nM; do not include the unit.

# input Which value of IC50 has been reported for OC[C@H]1O[C@@H](n2cc(Cc3ccc(OC(F)F)cc3)c3c(F)cccc32)[C@H](O)[C@@H](O)[C@@H]1O [Example 26] in the records?
# output 11

# input Now the same for CCc1ccc(Cc2cn([C@@H]3O[C@H](CO)[C@@H](O)[C@H](O)[C@H]3O)c3cccc(F)c23)s1 [Example 18]
# output 4.1

# input Could you do the same for OC[C@H]1O[C@@H](n2cc(Cc3ccc(OCCCl)cc3)c3c(Cl)cccc32)[C@H](O)[C@@H](O)[C@@H]1O [Example 19] , please?
# output 3.9

# input What would you report for Cc1cccc2c1c(Cc1ccc(-c3ccccc3)s1)cn2[C@@H]1O[C@H](CO)[C@@H](O)[C@H](O)[C@H]1O [Example 50] ?
# output 11

# input Okay, and Cc1cccc2c1c(Cc1ccc(-c3ccccn3)s1)cn2[C@@H]1O[C@H](CO)[C@@H](O)[C@H](O)[C@H]1O [Example 52] ?
# output 2.8
